system: MDA-N; test: NCI tumour cell line growth inhibition, 48 h
Active and inactive are the calls of the source. No stated cut-off is given here; in the data, active = GI50 up to about 1.1 µM and inactive = higher.
Please state which outcome applies, choosing from True = active, False = inactive

Qu. Can you look up the reported call for OC(C1CCCC1=N/N=C1/CCCC1C(O)(C(F)(F)Cl)C(F)(F)Cl)(C(F)(F)Cl)C(F)(F)Cl (stereo not given) for me?
Ans. False

Qu. Can you look up the reported call for O=C1C(=Cc2ccccc2[N+](=O)[O-])N=C(c2ccccc2)N1n1c(-c2ccccc2)nc2ccccc2c1=O for me?
Ans. False

Qu. Can you look up the reported call for C/C(=N\O)c1cccc(Nc2c3ccccc3nc3occc23)c1 for me?
Ans. False

Qu. Can you look up the reported call for O=c1[nH]/c(=C/c2ccc(OCc3ccccc3)cn2)c(=O)[nH]/c1=C/c1cccnc1 for me?
Ans. True

Qu. Can you look up the reported call for CCCC1(N2C(=O)c3ccc4c5c(ccc(c35)C2=O)N(C2(CCC)CCCCC2)C4=O)CCCCC1 for me?
Ans. False
